Data provenance: a melting point compilation (Tetko et al.; mined from patent text by program, amines drawn as free bases though some values may be those of a salt)

Each item that follows carries a reported melting point.
Measurement Type: melting point

{"Molecule": "C=CCOc1ccnc2c([N+](=O)[O-])cccc12", "Measurement Type": "melting point", "Endpoint Result": "127 °C"}
{"Molecule": "COc1ccc(C2(O)c3cc(NC(=O)CC(C)(C)C)c(C)c(C)c3OC2(C)C)c(OC)c1 (stereo unspecified)", "Measurement Type": "melting point", "Endpoint Result": "150 to 151 °C"}
{"Molecule": "C#CCc1c(C)nc2c(OCc3ccccc3C)cccn12", "Measurement Type": "melting point", "Endpoint Result": "138 to 140 °C"}
{"Molecule": "CCC(C)C(NC(=O)C(CS)C(F)(F)F)C(=O)O (stereo unspecified)", "Measurement Type": "melting point", "Endpoint Result": "140 to 142 °C"}
{"Molecule": "NC(=O)C(=O)NC(C(=O)OC(c1ccccc1)c1ccccc1)c1ccccc1 (stereo unspecified)", "Measurement Type": "melting point", "Endpoint Result": "168 °C"}
{"Molecule": "CCCCC1=Nc2ccccc2SN1", "Measurement Type": "melting point", "Endpoint Result": "153 to 155 °C"}
{"Molecule": "CC(C)(C)OC(=O)CN(O)CC(=O)OC(C)(C)C", "Measurement Type": "melting point", "Endpoint Result": "73 to 76 °C"}
{"Molecule": "COc1ccccc1C=CC(=O)C(CC=Cc1ccccc1Cl)(CCC(=O)O)c1ccccc1 (stereo unspecified)", "Measurement Type": "melting point", "Endpoint Result": "206 to 210 °C"}
{"Molecule": "CC(=O)C1CCC2C3CCC4CC(O)C(Br)CC4(C)C3CCC12C (stereo unspecified)", "Measurement Type": "melting point", "Endpoint Result": "171 to 175 °C"}
{"Molecule": "COC(=O)[C@@H]1CCCN1c1ccc(C)c([N+](=O)[O-])c1O", "Measurement Type": "melting point", "Endpoint Result": "111 to 114 °C"}
{"Molecule": "Nc1ccccc1N1CCN(CC(O)COc2cccc3c2CCCC3)CC1 (stereo unspecified)", "Measurement Type": "melting point", "Endpoint Result": "103 to 104 °C"}
{"Molecule": "CCOC(=O)Nc1cc(F)cc(CCCCC(=O)O)c1", "Measurement Type": "melting point", "Endpoint Result": "136 to 137 °C"}
{"Molecule": "O=c1n(CCCF)nnn1-c1cc(Oc2ccc([N+](=O)[O-])cc2)c(Cl)cc1F", "Measurement Type": "melting point", "Endpoint Result": "109 to 110 °C"}
{"Molecule": "O=C(CCC1CC1)N1C(=O)OC[C@@H]1Cc1ccccc1", "Measurement Type": "melting point", "Endpoint Result": "42 to 43 °C"}
{"Molecule": "C[Si](C)(C)Sc1ncn([Si](C)(C)C)n1", "Measurement Type": "melting point", "Endpoint Result": "90 to 94 °C"}
{"Molecule": "O=C(O)Cc1cccc2c(C3CCCCC3)nccc12", "Measurement Type": "melting point", "Endpoint Result": "178 to 179 °C"}
{"Molecule": "COC[C@H]1CN(c2ccc3oc(-c4ccccc4)cc3c2)C(=O)O1", "Measurement Type": "melting point", "Endpoint Result": "178 to 179 °C"}
{"Molecule": "CN(Cc1cc(C(F)(F)F)cc(C(F)(F)F)c1)C(=O)c1cnc2ccccc2c1-c1ccccc1", "Measurement Type": "melting point", "Endpoint Result": "96 to 97 °C"}
{"Molecule": "O=C1CCCc2c1c1cccc(F)c1n2Cc1ccccc1", "Measurement Type": "melting point", "Endpoint Result": "183 to 184 °C"}
{"Molecule": "CC(Oc1ccc(Oc2ncc(C(F)(F)F)cc2Cl)cc1)C(=O)Nc1ccc(OC(F)(F)F)cc1 (stereo unspecified)", "Measurement Type": "melting point", "Endpoint Result": "140 to 141 °C"}
{"Molecule": "Clc1ccc(-c2nc(CCCCCc3nnn[nH]3)oc2-c2ccc(Cl)cc2)cc1", "Measurement Type": "melting point", "Endpoint Result": "100 °C"}
{"Molecule": "CCc1cc(SCc2cccc3oc(-c4ccc(C(F)(F)F)cc4)nc23)ccc1OCC(=O)O", "Measurement Type": "melting point", "Endpoint Result": "127 to 128 °C"}
{"Molecule": "COc1ncccc1OCC(O)CNC(C)C (stereo unspecified)", "Measurement Type": "melting point", "Endpoint Result": "50 to 65 °C"}
{"Molecule": "CCCCCCCCCCC/C=C\\c1c[nH]c(C(=O)O)c1", "Measurement Type": "melting point", "Endpoint Result": "157 to 158 °C"}
{"Molecule": "O=C(N[C@H]1CC[C@H](CCN2CCN(c3nccc4c3CCO4)CC2)CC1)c1ccc(Cl)cc1Cl", "Measurement Type": "melting point", "Endpoint Result": "204 °C"}
{"Molecule": "OCCCc1ccc(OCCN2CCOCC2)cc1Oc1ncc(C(F)(F)F)cc1Cl", "Measurement Type": "melting point", "Endpoint Result": "69.2 to 70.4 °C"}
{"Molecule": "COc1ccc(CCOS(N)(=O)=O)cc1OC", "Measurement Type": "melting point", "Endpoint Result": "106 to 108 °C"}
{"Molecule": "CCOC(=O)c1cn(-c2nc(SC(C)C)nc(C(F)(F)F)c2I)nc1C(F)(F)F", "Measurement Type": "melting point", "Endpoint Result": "107 to 108 °C"}
{"Molecule": "CNC(=O)[C@@H]1C[C@H](OS(=O)(=O)c2ccc(C)cc2)CN1S(=O)(=O)c1ccc(C)cc1", "Measurement Type": "melting point", "Endpoint Result": "147 to 149 °C"}
{"Molecule": "CC(C)(C)OC(=O)n1c(-c2ccc3c(c2)C(C)(C)OC(=O)N3)ccc1[N+](=O)[O-]", "Measurement Type": "melting point", "Endpoint Result": "125 °C"}
{"Molecule": "Cc1cc(N)ccc1-c1ccc(-c2ccc(N)cc2C)o1", "Measurement Type": "melting point", "Endpoint Result": "174 to 176 °C"}
{"Molecule": "CC(=O)c1c(C)[nH]c(C2CCCC2)c1C", "Measurement Type": "melting point", "Endpoint Result": "162 to 164 °C"}
{"Molecule": "CCOC(=O)C1(C(=O)OCC)CCC2(CC1)NCCc1cc(O)c(O)cc12", "Measurement Type": "melting point", "Endpoint Result": "180 to 181 °C"}
{"Molecule": "CN1C(=O)c2ccccc2NC(=O)C1c1ccccc1 (stereo unspecified)", "Measurement Type": "melting point", "Endpoint Result": "242 to 244 °C"}
{"Molecule": "O=C(O)[C@H](Cc1c[nH]c2ccccc12)NC(=O)C1(NC(=O)[C@@H](S)C2CCOCC2)CCCC1", "Measurement Type": "melting point", "Endpoint Result": "212 to 215 °C"}
{"Molecule": "COc1cc(CO)ccc1OCc1nc(-c2cccc(OS(C)(=O)=O)c2)oc1C", "Measurement Type": "melting point", "Endpoint Result": "140 to 141 °C"}
{"Molecule": "CCN(CC)CCOc1cccc2c1c1cccc(F)c1n2Cc1ccc(F)cc1", "Measurement Type": "melting point", "Endpoint Result": "59 to 60 °C"}
{"Molecule": "CCC1(CC)OC(C(=O)O)Oc2ccc(Cl)cc21 (stereo unspecified)", "Measurement Type": "melting point", "Endpoint Result": "108 °C"}
{"Molecule": "COC(=O)c1cccc(OS(N)(=O)=O)c1", "Measurement Type": "melting point", "Endpoint Result": "145 to 146 °C"}
{"Molecule": "COc1ccc2ncc3c(c2c1)C(O)CCC3 (stereo unspecified)", "Measurement Type": "melting point", "Endpoint Result": "190 °C"}
{"Molecule": "COC(=O)CCc1ccc(NC(=O)C(Cn2ccnc2)NS(=O)(=O)c2ccc(Cl)cc2)cc1 (racemic)", "Measurement Type": "melting point", "Endpoint Result": "79 to 82 °C"}
